molecular target: Pin1 (Example 6, construct not stated) (human) (UniProt Q13526); assay: fluorescence anisotropy
pKd: −log10 of the molar value. Starred links: 1 amine or outer side, 2 acyl side, 3 side chain; linkers in the order of their positions; H or OH if unused. Non-standard residues stand in square brackets, D forms with d. Primed or numbered codes have the meaning given here. No end group written: not given here. Trimesoyl = O=C(c1cc(C(=O)[*:2])cc(C(=O)[*:3])c1)[*:1]; d(pT) = C[C@H](OP(=O)(O)O)[C@@H](N)C(=O)O; Phe(4-Br) = N[C@@H](Cc1ccc(Br)cc1)C(=O)O; Phe(4-F) = N[C@@H](Cc1ccc(F)cc1)C(=O)O; 2Nal = N[C@@H](Cc1ccc2ccccc2c1)C(=O)O; Pip′ = L-homoproline (pipecolyl); Dap = NC[C@H](N)C(=O)O; Sar = CNCC(=O)O
Rule: pKd under 6 gives 0.0, otherwise 1.0.

Form field: pKd at least 6? Entry: [dA][Sar][d(pT)][Pip′][2Nal]YQK (lactam (positions not given here); not fully specified (C-terminus, bridges); printed as cyclo(D-Ala-Sar-D-pThr-Pip-Nal-Tyr-Gln)-Lys) [peptide 46 (Table 18)]
1.0

Form field: pKd at least 6? Entry: Trimesoyl-[dF][Phe(4-Br)][dT][Pip′][2Nal]RA[dF][Dap]F[2Nal]RRRR[Dap]K (linker (positions not given here) via Trimesoyl; not fully specified (C-terminus, bridges); printed as bicyclo[Tm-(D-Phe-4-BrPhe-D-Thr-Pip-Nal-Arg-Ala-D-Phe)-Dap-(Phe-Nal-Arg-Arg-Arg-Arg-Dap)]-Lys) [peptide 32 (Table 18)]
0.0

Form field: pKd at least 6? Entry: Trimesoyl-P[Sar][dD][Pip′][2Nal]RY[dA][Dap]F[2Nal]RRRR[Dap]K-NH2 (linker (positions not given here) via Trimesoyl; not fully specified (some residues, bridges); printed as bicyclo[Tm-(Pro-Sar-D-Asp-Pip-Nal-Arg-Tyr-D-Ala)-Dap-(Phe-Nal-Arg-Arg-Arg-Arg-Dap)]-Lys) [peptide 17 (Table 18)]
0.0

Form field: pKd at least 6? Entry: Trimesoyl-[D‑2‑Fpa][Phe(4-F)][dT][Pip′][2Nal]RA[dF][Dap]F[2Nal]RRRR[Dap]K (linker (positions not given here) via Trimesoyl; not fully specified (C-terminus, bridges); printed as bicyclo[Tm-(D-2-Fpa-Fpa-D-Thr-Pip-Nal-Arg-Ala-D-Phe)-Dap-(Phe-Nal-Arg-Arg-Arg-Arg-Dap)]-Lys) [peptide 35 (Table 18)]
1.0
